Target: T1, human IL-18Rβ ECD Fc fusion (118-AP-100, R&D Systems) (human, UniProt O95256 20-356)
T1 construct: Bought protein; also called hIL-18Rβ; recombinant human IL-18Rb; not shown: Fc tag of the bought fusion protein, not described
T1 sequence: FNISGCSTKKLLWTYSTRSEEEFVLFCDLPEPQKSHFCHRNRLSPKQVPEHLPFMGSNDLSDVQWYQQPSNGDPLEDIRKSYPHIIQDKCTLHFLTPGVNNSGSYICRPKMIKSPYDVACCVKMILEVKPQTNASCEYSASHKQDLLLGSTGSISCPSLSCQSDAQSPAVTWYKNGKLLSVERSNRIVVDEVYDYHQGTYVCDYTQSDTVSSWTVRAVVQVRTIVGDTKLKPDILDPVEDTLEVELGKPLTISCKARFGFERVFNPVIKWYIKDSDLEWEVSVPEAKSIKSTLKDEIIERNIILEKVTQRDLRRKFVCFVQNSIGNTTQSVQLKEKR
Assay: ELISA on recombinant human IL-18Rβ, normalised OD 450 nm, Fab with PBS or with saturating IgG 3131 [middle plot]
assayEndpoint: binding result

3131 AM2-31 (Fab, V domains shown, Fab) VH: EVQLVESGGGLVQPGGSLRLSCAASGFNLYYSSMHWVRQAPGKGLEWVASIYSSYGYTYYADSVKGRFTISADTSKNTAYLQMNSLRAEDTAVYYCARSSFSHGYGWYGLDYWGQGTLVTVSS VL: DIQMTQSPSSLSASVGDRVTITCRASQSVSSAVAWYQQKPGKAPKLLIYSESSLYSGVPSRFSGSRSGTDFTLTISSLQPEDFATYYCQQYGYHYAGLITFGQGTKVEIK    binds
3131 AM2-17 (Fab, V domains shown, Fab) VH: EVQLVESGGGLVQPGGSLRLSCAASGFNLYYSSMHWVRQAPGKGLEWVASIYSSHGNTDYADSVKGRFTISADTSKNTAYLQMNSLRAEDTAVYYCARSSFSHGYGWYGLDYWGQGTLVTVSS VL: DIQMTQSPSSLSASVGDRVTITCRASQSVSSAVAWYQQKPGKAPKLLIYSASSLYSGVPSRFSGSRSGTDFTLTISSLQPEDFATYYCQQYGYHYAGLITFGQGTKVEIK    binds
3131 AM2-15 (Fab, V domains shown, Fab) VH: EVQLVESGGGLVQPGGSLRLSCAASGFNLYYSSMHWVRQAPGKGLEWVASIYSSSGDTGYADSVKGRFTISADTSKNTAYLQMNSLRAEDTAVYYCARSSFSHGYGWYGLDYWGQGTLVTVSS VL: DIQMTQSPSSLSASVGDRVTITCRASQSVSSAVAWYQQKPGKAPKLLIYSASSLYSGVPSRFSGSRSGTDFTLTISSLQPEDFATYYCQQYGYHYAGLITFGQGTKVEIK    binds
